Attribute: inhibition
- Target: Mannose-6-phosphate isomerase (Homo sapiens)
- Assay overview: MPI inhibition at elevated mannose 6-phosphate – biochemical, fluorescence intensity, high mannose 6-phosphate, primary screen (AID 1220)
- Assay conditions: recombinant PMI enzyme, coupled fluorescence intensity; at 20 µM; hits give high values
Out of some 190,000 compounds screened, about 1,300 (0.68%) were called active. The list comes from a sample in which actives are over-represented; it also holds close analogues and randomly drawn compounds.
Reported endpoint: inhibition (%)

• C=CCc1cccc2cc(C(=O)NCc3cccnc3)c(=O)oc12 = 3.6
• Cc1ccc(C2C(C#N)=C(N)Oc3c2c(=O)n(C)c(=O)n3C)cc1 (stereo not drawn) = -24.8
• COCCCNc1ncnc2c1[nH]c1ccccc12 = 16.1
• N#C/C(=C\c1cn(Cc2ccccc2)c2ccccc12)C(=O)NCc1ccco1 = 15.2
• CN(C)c1ccc2c(c1)OC(N)=C(C#N)C2c1cccc(F)c1 (stereo not drawn) = 25.2
• COC(=O)C1=C(C)OC(N)=C(C#N)C1c1ccccc1 (stereo not drawn) = -8.8
• COC(=O)c1cc(COc2ccc3oc(C)c(C(=O)OC(C)C)c3c2)c(C)o1 = -0.3
• COc1ccc(NC(=O)C2CCN(C(=O)NCc3ccccc3)CC2)cc1 = 13
